experiment: Cynomolgus monkey plasma pharmacokinetics; conditions: male, iv, 4.37 mg/kg, Cl, monkey P101, 4.37 mg/kg i.v. bolus
Structures can show the parent of a compound that is named as a salt.
measurement name: clearance (mL/h/kg)
Report the value in mL/h/kg with no unit label.

compound Cc1ccc(C(=O)Nc2ccc(S(=O)(=O)O)c3cc(S(=O)(=O)O)cc(S(=O)(=O)O)c23)cc1NC(=O)c1cccc(NC(=O)Nc2cccc(C(=O)Nc3cc(C(=O)Nc4ccc(S(=O)(=O)O)c5cc(S(=O)(=O)O)cc(S(=O)(=O)O)c45)ccc3C)c2)c1 [suramin, Suramin sodium salt] , clearance observed: 2.23

====

assay: Cynomolgus monkey plasma pharmacokinetics; conditions: male, iv, 4.37 mg/kg, Cl, monkey P102, 4.37 mg/kg i.v. bolus
Counter-ions that a name gives are not always drawn.
measurement name: clearance (mL/h/kg)
// note: answer is a bare numeric in mL/h/kg

Form field clearance, entry Cc1ccc(C(=O)Nc2ccc(S(=O)(=O)O)c3cc(S(=O)(=O)O)cc(S(=O)(=O)O)c23)cc1NC(=O)c1cccc(NC(=O)Nc2cccc(C(=O)Nc3cc(C(=O)Nc4ccc(S(=O)(=O)O)c5cc(S(=O)(=O)O)cc(S(=O)(=O)O)c45)ccc3C)c2)c1 [suramin, Suramin sodium salt] : 1.82

====

biological target: CYP2D6 (Homo sapiens, UniProt P10635); test: in vitro; details: human microsomes, probe marker substrate cocktail, O-demethylation (CYP2D6)
Sequence (P10635 whole entry): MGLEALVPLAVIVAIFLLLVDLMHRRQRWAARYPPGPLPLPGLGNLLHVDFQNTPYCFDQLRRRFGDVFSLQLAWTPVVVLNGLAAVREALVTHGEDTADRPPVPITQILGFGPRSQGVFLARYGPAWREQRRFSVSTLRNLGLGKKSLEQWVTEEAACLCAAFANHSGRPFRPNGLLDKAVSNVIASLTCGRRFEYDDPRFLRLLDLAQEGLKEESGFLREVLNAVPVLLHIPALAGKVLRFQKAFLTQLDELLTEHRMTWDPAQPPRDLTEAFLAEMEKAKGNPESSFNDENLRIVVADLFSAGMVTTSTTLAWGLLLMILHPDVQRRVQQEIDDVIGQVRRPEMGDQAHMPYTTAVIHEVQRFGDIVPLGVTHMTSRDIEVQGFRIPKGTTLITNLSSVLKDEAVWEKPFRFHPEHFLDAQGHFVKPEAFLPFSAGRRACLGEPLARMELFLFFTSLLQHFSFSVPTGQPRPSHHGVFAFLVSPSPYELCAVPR
Counter-ions that a name gives are not always drawn.
measurement name: inhibition at 10 min, 10 µM (%)
# unit: % | format: bare number

// field: inhibition at 10 min, 10 µM; key: Cc1ccc(C(=O)Nc2ccc(S(=O)(=O)O)c3cc(S(=O)(=O)O)cc(S(=O)(=O)O)c23)cc1NC(=O)c1cccc(NC(=O)Nc2cccc(C(=O)Nc3cc(C(=O)Nc4ccc(S(=O)(=O)O)c5cc(S(=O)(=O)O)cc(S(=O)(=O)O)c45)ccc3C)c2)c1 [suramin, Suramin sodium salt] ; value = 7

====

test: Cynomolgus monkey plasma pharmacokinetics; conditions: male, iv, 4.37 mg/kg, Tmax, mean of 3 monkeys, 4.37 mg/kg i.v. bolus
Counter-ions that a name gives are not always drawn.
measurement name: Tmax (min)
Give just the numeric value; min need not be written.

Tmax recorded for this compound, Cc1ccc(C(=O)Nc2ccc(S(=O)(=O)O)c3cc(S(=O)(=O)O)cc(S(=O)(=O)O)c23)cc1NC(=O)c1cccc(NC(=O)Nc2cccc(C(=O)Nc3cc(C(=O)Nc4ccc(S(=O)(=O)O)c5cc(S(=O)(=O)O)cc(S(=O)(=O)O)c45)ccc3C)c2)c1 [suramin, Suramin sodium salt] , is 3.6

====

assay: Cynomolgus monkey plasma pharmacokinetics; settings: male, iv, 4.37 mg/kg, Cmax, monkey P102, 4.37 mg/kg i.v. bolus
Structures can show the parent of a compound that is named as a salt.
measurement name: Cmax (µg/mL)
I only need the number, in µg/mL, no unit after it.

Record Cc1ccc(C(=O)Nc2ccc(S(=O)(=O)O)c3cc(S(=O)(=O)O)cc(S(=O)(=O)O)c23)cc1NC(=O)c1cccc(NC(=O)Nc2cccc(C(=O)Nc3cc(C(=O)Nc4ccc(S(=O)(=O)O)c5cc(S(=O)(=O)O)cc(S(=O)(=O)O)c45)ccc3C)c2)c1 [suramin, Suramin sodium salt] . Reported Cmax: 117

====

assay: Cynomolgus monkey plasma pharmacokinetics; settings: male, iv, 4.37 mg/kg, C0, monkey P102, 4.37 mg/kg i.v. bolus
Where a name gives a salt, the structure may show the parent alone.
measurement name: C0 (µg/mL)
Lab book: enter the figure in µg/mL, no units written.

Lab note: Cc1ccc(C(=O)Nc2ccc(S(=O)(=O)O)c3cc(S(=O)(=O)O)cc(S(=O)(=O)O)c23)cc1NC(=O)c1cccc(NC(=O)Nc2cccc(C(=O)Nc3cc(C(=O)Nc4ccc(S(=O)(=O)O)c5cc(S(=O)(=O)O)cc(S(=O)(=O)O)c45)ccc3C)c2)c1 [suramin, Suramin sodium salt] gave C0 of 96.3
